measured.target: T1, B7-H3 (4Ig-B7-H3) endogenously expressed on MDA-MB-231 cells (UniProt Q5ZPR3 29-534, limits assumed)
T1 construct: whole, on cells; also called 细胞表面的B7-H3抗原
T1 sequence (looked up): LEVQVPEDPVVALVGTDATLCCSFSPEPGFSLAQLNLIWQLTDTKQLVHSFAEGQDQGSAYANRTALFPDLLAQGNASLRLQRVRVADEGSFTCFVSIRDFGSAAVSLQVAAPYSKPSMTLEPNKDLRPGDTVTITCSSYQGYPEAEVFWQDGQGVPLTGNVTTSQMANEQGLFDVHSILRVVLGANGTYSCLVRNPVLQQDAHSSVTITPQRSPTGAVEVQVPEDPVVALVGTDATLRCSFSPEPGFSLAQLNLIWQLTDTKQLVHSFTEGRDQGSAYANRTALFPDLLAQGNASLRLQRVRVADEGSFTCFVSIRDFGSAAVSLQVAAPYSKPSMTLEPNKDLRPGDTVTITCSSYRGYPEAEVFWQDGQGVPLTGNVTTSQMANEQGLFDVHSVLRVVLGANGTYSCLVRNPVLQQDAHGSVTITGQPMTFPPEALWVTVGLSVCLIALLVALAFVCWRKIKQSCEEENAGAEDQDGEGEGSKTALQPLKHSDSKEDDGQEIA
assay.explanation: FACS, MDA-MB-231 cells
parameter: binding result

1. scFv-27B4-H2-L1 (scFv, VH-linker-VL in phage display vector pXY, expressed in TG1, purified on a nickel column) scFv: QVQLVQSGAEVKKPGSSVKVSCKASGYTFTTYWISWVRQAPGQGLEWMGGIYPGDGGSNYAQKFQGRVTITADESTSTAYMELSSLRSEDTAVYYCARGGNYISFPMYYWGQGTLVTVSSGGGGSGGGGSGGGGSGGGGASDIQMTQSPSSLSASMGDRVTITCKASRGVSTALNWYQQKPGKAPKLLIYWASSLQSGVPSRFSGSGSGTDFTLTISSLQPEDFATYYCQQHYDTPYTFGQGTKLEIK : binds
2. scFv-27B4-H5-L3 (scFv, VH-linker-VL in phage display vector pXY, expressed in TG1, purified on a nickel column) scFv: QVQLVESGGGVVQPGRSLRLSCKASGYTFTTYWMHWVRQAPGKGLEWVAVIYPGDGGSYYTDSVKGRFTISRDNSKNTLYLQMNSLRAEDTAVYYCARGGNYISFPMYYWGQGTLVTVSSGGGGSGGGGSGGGGSGGGGASEIVMTQSPATLSVSPGERATLSCKASRGVSTALAWYQQKPGQAPRLLIYWASTRATGIPARFSGSGSGTEFTLTISSLQSEDFAVYYCQQHYDTPYTFGQGTKLEIK : binds

Sourced from patent CN113683697A
